Biological target: butyrylcholinesterase (Equus caballus)
Construct: butyrylcholinesterase (from horse serum); purchased Sigma; host or cells: horse serum (natural source)
Test: biochemical
Type: biochemical, horse
Conditions: standard conditions (10^−7M)
result_type: inhibitory under standard conditions

>>> result("CCCCCCNP(=O)(Oc1ccccc1Cl)Oc1ccccc1Cl")
"Not inhibitory"
>>> result("CCCCOP(=O)(Oc1ccc(Cl)cc1Cl)Oc1ccc(Cl)cc1Cl")
"Not inhibitory"
>>> result("O=P(Oc1ccccc1)(Oc1ccccc1)Oc1ccccc1Cl")
"Not inhibitory"

----------
Target: butyrylcholinesterase (Equus caballus, UniProt P81908)
Construct: butyrylcholinesterase (from horse serum); purchased Sigma; host or cells: horse serum (natural source)
Sequence (P81908 whole entry): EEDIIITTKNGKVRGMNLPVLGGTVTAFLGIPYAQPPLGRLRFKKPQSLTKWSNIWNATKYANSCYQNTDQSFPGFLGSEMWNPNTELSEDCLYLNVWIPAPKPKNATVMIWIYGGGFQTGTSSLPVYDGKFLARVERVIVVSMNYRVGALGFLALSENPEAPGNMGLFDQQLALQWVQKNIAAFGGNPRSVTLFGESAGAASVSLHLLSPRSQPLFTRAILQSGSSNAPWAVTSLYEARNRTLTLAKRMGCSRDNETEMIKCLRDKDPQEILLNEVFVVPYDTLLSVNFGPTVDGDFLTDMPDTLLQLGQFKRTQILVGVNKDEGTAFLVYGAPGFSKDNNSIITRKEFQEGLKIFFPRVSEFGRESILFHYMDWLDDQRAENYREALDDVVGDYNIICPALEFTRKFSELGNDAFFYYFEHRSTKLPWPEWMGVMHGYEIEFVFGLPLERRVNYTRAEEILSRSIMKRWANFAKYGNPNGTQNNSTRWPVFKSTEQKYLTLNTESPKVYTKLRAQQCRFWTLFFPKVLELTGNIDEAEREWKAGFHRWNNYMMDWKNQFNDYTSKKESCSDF
Assay: biochemical
Format: biochemical, horse
Conditions: 10^−7M; normalized to 2-chlorophenyl-di-n-butyl phosphate set as 1.0
Measured Change in Absorbance at 412 nm/Minute (Normalized) values are reported for all entries that follow.
result_type: Change in Absorbance at 412 nm/Minute (Normalized)

>>> result("CCCCCCP(=O)(OCCCC)Oc1ccccc1Cl (stereo not shown)")
14.94
>>> result("CCCCOP(=O)(OCCCC)Oc1ccccc1Br")
1.366
>>> result("CCCCOP(=O)(OCCCC)Oc1cccc(F)c1")
0.696
>>> result("CCCCOP(=O)(OCCCC)Oc1ccccc1F")
2.604
